// reported %Inh per item
- Test system: S6K1;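 also: KINOMEscan kinase panel screen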
- experimental conditions: concentration: 1 μM, replicates: in singlicate; n = 1

molecule | %Inh [%]
Cc1ccc(C(=O)Nc2ccc(Nc3ccnc4cc(-c5nccs5)ccc34)cc2O)cc1.Cl [GW494702] | 11
COC(=O)Nc1nc2ccc(Oc3ccc(NC(=O)Nc4cc(C(F)(F)F)ccc4F)cc3)cc2n1C.Cl [GW692089] | 1
CSc1cccc2c(-c3ccncn3)c(-c3ccc(F)cc3)nn12 [GW514786] | 0
COc1cc(Nc2nccc(-c3c(-c4cccc(NC(=O)c5c(F)cccc5F)c4)nn4ccccc34)n2)cc(OC)c1OC [GSK323521] | 7
Cn1cc(-c2ccc3c(c2)CCN3C(=O)Cc2cccc(Cl)c2)c2c(N)ncnc21 [GSK2606590] | 0
CCc1ccc(-c2ccc3c(c2)-c2c(cnn2C)S(=O)(=O)N3C)cc1 | 4
COc1cc(Nc2ncc3c(C)nc(-c4cc5ccccc5[nH]4)n3n2)cc(OC)c1OC [GW869516] | 0
Cl.NC(=O)c1cccc(Nc2nccc(Nc3ccc(Oc4c(Cl)cccc4Cl)c(Cl)c3)n2)c1 [GW659009] | 0

Data origin, for the record: paper PMC5540273
